targetOrTestSystem: Peroxisome proliferator-activated receptor gamma (Homo sapiens)
testProtocol: Transactivation of chimeric GAL4-fused human PPARgamma transfected in HEK293EBNA cells measured at 24 hrs after drug treatment by steady-Glo luciferase assay reagent based luminescence assay relative to pioglitazone
Assay type: cell-based
quantity: Emax (%)

CCCc1nc2ccccc2n1Cc1ccc2c(c1)COc1c(F)cccc1/C2=C(\C)c1noc(=O)[nH]1 ... 8.7
C/C(=C1/c2ccc(Cn3c(C4CC4)nc4c(Cl)ccnc43)cc2COc2cc(F)ccc21)c1noc(=O)[nH]1 ... 10.3
C/C(=C1/c2ccc(Cc3c(C4CC4)nc4ccc(Cl)cn34)cc2COc2cc(F)ccc21)c1noc(=O)[nH]1 ... 15.1
CCCc1nc2ccccc2n1Cc1ccc2c(c1)COc1cc(F)ccc1/C2=C(\C)c1noc(=O)[nH]1 ... 11.7

====

targetOrTestSystem: Peroxisome proliferator-activated receptor gamma (Homo sapiens, UniProt P37231)
Sequence (P37231 whole entry, the tested form may be a part): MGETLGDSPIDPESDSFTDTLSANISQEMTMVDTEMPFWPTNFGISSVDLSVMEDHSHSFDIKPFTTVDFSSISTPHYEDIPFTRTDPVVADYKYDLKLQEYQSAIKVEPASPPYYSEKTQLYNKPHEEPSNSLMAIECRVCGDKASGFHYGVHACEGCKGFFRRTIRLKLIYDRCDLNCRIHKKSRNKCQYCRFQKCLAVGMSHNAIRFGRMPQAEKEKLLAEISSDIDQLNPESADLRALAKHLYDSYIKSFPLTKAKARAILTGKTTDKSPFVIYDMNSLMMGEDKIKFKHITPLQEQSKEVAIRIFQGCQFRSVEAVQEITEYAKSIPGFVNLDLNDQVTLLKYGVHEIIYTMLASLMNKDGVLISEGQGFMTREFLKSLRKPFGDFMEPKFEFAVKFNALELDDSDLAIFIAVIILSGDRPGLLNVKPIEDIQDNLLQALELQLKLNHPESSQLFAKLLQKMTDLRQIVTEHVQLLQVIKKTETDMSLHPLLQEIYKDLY
testProtocol: Transactivation of chimeric GAL4-fused human PPARgamma transfected in HEK293EBNA cells measured at 24 hrs after drug treatment by steady-Glo luciferase assay reagent based luminescence assay
quantity: EC50 (nM)

Known results for compounds:
CCCc1nc2c(C)cccc2n1Cc1ccc2c(n1)COc1ccccc1/C2=C(\C)c1noc(=O)[nH]1 ... 86
CCCc1nc2ccccc2n1Cc1ccc2c(c1)COc1c(F)cccc1/C2=C(\C)c1noc(=O)[nH]1 ... 4.4
C/C(=C1/c2ccc(Cc3c(C4CC4)nc4cc(F)ccn34)cc2COc2cc(F)ccc21)c1noc(=O)[nH]1 ... 13
COCc1nc2c(Cl)cccn2c1Cc1ccc2c(c1)COc1cc(F)ccc1/C2=C(\C)c1noc(=O)[nH]1 ... 7.3
C/C(=C1/c2ccc(Cn3c(C4CC4)nc4cscc43)cc2COc2cc(F)ccc21)c1noc(=O)[nH]1 ... 21

I: C/C(=C1/c2ccc(Cc3c(C4CC4)nc4ccccn34)cc2COc2cc(F)ccc21)c1noc(=O)[nH]1
II: C/C(=C1/c2ccc(Cc3c(C4CC4)nc4cc(Cl)ccn34)cc2COc2cc(F)ccc21)c1noc(=O)[nH]1
Min EC50? I | II Return value: the label identifying the chosen record.
II
(II: 3.6 nM, I: 19 nM)

====

targetOrTestSystem: Peroxisome proliferator-activated receptor gamma (Homo sapiens, UniProt P37231)
testProtocol: Transactivation of chimeric GAL4-fused human PPARgamma transfected in HEK293EBNA cells measured at 24 hrs after drug treatment by steady-Glo luciferase assay reagent based luminescence assay
pEC50: −log10 of the molar value.
quantity: pEC50

C/C(=C1/c2ccc(Cc3c(C4CC4)nc4ccc(Cl)cn34)cc2COc2cc(F)ccc21)c1noc(=O)[nH]1 ... 7.96

a: C/C(=C1/c2ccc(Cc3c(C4CC4)nc4c5c(ccn34)OCC5)cc2COc2cc(F)ccc21)c1noc(=O)[nH]1
b: CCCc1nc2c(C)cccc2n1Cc1ccc2c(c1)OCc1ncccc1/C2=C(\C)c1noc(=O)[nH]1
API: POST /compare with a and b ; response names the item with higher pEC50. Return value: the label identifying the chosen record.
a

====

targetOrTestSystem: Peroxisome proliferator-activated receptor gamma (Homo sapiens)
testProtocol: Transactivation of chimeric GAL4-fused human PPARgamma transfected in HEK293EBNA cells measured at 24 hrs after drug treatment by steady-Glo luciferase assay reagent based luminescence assay relative to pioglitazone
Type: cell-based
quantity: Emax (%)

Known results for compounds:
C/C(=C1/c2ccc(Cc3c(C4CC4)nc4ccccn34)cc2COc2cc(F)ccc21)c1noc(=O)[nH]1 ... 9.8
COCc1nc2cc(Cl)ccn2c1Cc1ccc2c(c1)COc1cc(F)ccc1/C2=C(\C)c1noc(=O)[nH]1 ... 9
C/C(=C1/c2ccc(Cc3c(C4CC4)nc4cc(Cl)ccn34)cc2COc2cc(F)ccc21)c1noc(=O)[nH]1 ... 12.6
C/C(=C1/c2ccc(Cc3c(C4CC4)nc4cc(F)ccn34)cc2COc2cc(F)ccc21)c1noc(=O)[nH]1 ... 13.5

1: C/C(=C1/c2ccc(Cc3c(C4CC4)nc4c(Cl)cccn34)cc2COc2cc(F)ccc21)c1noc(=O)[nH]1
2: CCCc1nc2ccccc2n1Cc1ccc2c(c1)COc1ccc(F)cc1/C2=C(\C)c1noc(=O)[nH]1
API: POST /compare with 1 and 2 ; response names the item with higher Emax. Return value: the label identifying the chosen record.
1
